These entries and their values trace back to paper PMC3612106.

Assay: Metabolism and kinetics in pooled HLMs
Assay type: in vitro ADME, human
Conditions: human, pooled human liver microsomes, pH 7.4; HLMs; read-out: Cl int of N-des-ethylation (M1 formation)
Observed Property: microsomal CLint (µL/min/mg)
Reply numerically in µL/min/mg, unit not repeated.

Qu. # input molecule: CCN(CC)Cc1ccc(CC2Cc3cc(OC)c(OC)cc3C2=O)cc1 (stereo not shown) [M2] ; wanted: its microsomal CLint
Ans. 1.98
